Assay: Oral bioavailability in rat by LC-MS/MS analysis
Format: ADME, organism-based
Conditions: in vivo
Outcome: yes for bioavailability of at least 30%; no for anything lower.

>  <SMILES_CODE>
CC(=O)N(C)[C@@H](CC(C)(C)C)C(=O)N[C@H]1CCCCC/C=C\[C@@H]2C[C@@]2(C(=O)NS(=O)(=O)C2(C)CC2)NC(=O)[C@@H]2C[C@@H](Oc3nc4cc(F)ccc4c4ccccc34)CN2C1=O

>  <DISCRETE_LABEL>
no

$$$$
>  <SMILES_CODE>
Cc1cc(C(=O)N[C@H]2CCCCC/C=C\[C@@H]3C[C@@]3(C(=O)NS(=O)(=O)C3(C)CC3)NC(=O)[C@@H]3C[C@@H](Oc4nc5cc(F)ccc5nc4C(F)(F)F)CN3C2=O)no1

>  <DISCRETE_LABEL>
no

$$$$
>  <SMILES_CODE>
Cc1cc(C(=O)N[C@H]2CCCCC/C=C\[C@@H]3C[C@@]3(C(=O)NS(=O)(=O)C3(C)CC3)NC(=O)[C@@H]3C[C@@H](Oc4nc5ccccc5c5ccc(F)cc45)CN3C2=O)no1

>  <DISCRETE_LABEL>
yes

$$$$
>  <SMILES_CODE>
Cc1cc(C(=O)N[C@H]2CCCCC/C=C\[C@@H]3C[C@@]3(C(=O)NS(=O)(=O)C3CC3)NC(=O)[C@@H]3C[C@@H](Oc4nc5ccccc5nc4C(F)(F)F)CN3C2=O)no1

>  <DISCRETE_LABEL>
yes

$$$$
>  <SMILES_CODE>
Cn1ccc(C(=O)N[C@H]2CCCCC/C=C\[C@@H]3C[C@@]3(C(=O)NS(=O)(=O)C3(C)CC3)NC(=O)[C@@H]3C[C@@H](Oc4nc5cc(OC(F)(F)F)ccc5c5ccc(F)cc45)CN3C2=O)n1

>  <DISCRETE_LABEL>
yes

$$$$
>  <SMILES_CODE>
Cc1cc(C(=O)N[C@H]2CCCCC/C=C\[C@@H]3C[C@@]3(C(=O)NS(=O)(=O)C3CC3)NC(=O)[C@@H]3C[C@@H](Oc4nc5ccccc5nc4C)CN3C2=O)no1

>  <DISCRETE_LABEL>
no

$$$$
>  <SMILES_CODE>
Cc1cc(C(=O)N[C@H]2CCCCC/C=C\[C@@H]3C[C@@]3(C(=O)NS(=O)(=O)C3CC3)NC(=O)[C@@H]3C[C@@H](Oc4nc5cc(F)ccc5nc4C(F)(F)F)CN3C2=O)no1

>  <DISCRETE_LABEL>
no

$$$$
